# Test system: KB-3.1
# assay.procedure: cells
# Format: cell-based, human
# reported.conditions: Homo sapiens, KB 3-1, read-out: Antiproliferative activity IC50, KB-3.1 human cervix carcinoma
Task for the reader: assign each of the following molecules its reported pIC50.
Numbers only, as −log10 of the molar value.

Here are 3 molecules together with their reported answers.
C#CCCC(=O)NCCSSCCC(=O)N[C@H](/C=C/C=C(\C)C[C@@H](C)/C=C(C)\C=C\[C@H]1CC=CC(=O)O1)[C@@H]1C[C@@H](O)[C@H](C)[C@H](/C=C/C)O1	8.73
C#CCNC1C[C@@H]([C@H](O)/C=C/C=C(\C)C[C@@H](C)/C=C(C)\C=C\[C@H]2CC=CC(=O)O2)O[C@@H](/C=C/C)[C@H]1C (stereo partly shown)	8.91
C/C=C/[C@@H]1O[C@H](C(=O)/C=C/C=C(\C)C[C@@H](C)/C=C(C)\C=C\[C@H]2CC=CC(=O)O2)CC(=O)[C@@H]1C	8.40

// batch mode: one pIC50 value per listed entry
1. C#CCCOC(=O)NC1C[C@@H]([C@H](O)/C=C/C=C(\C)C[C@@H](C)/C=C(C)\C=C\[C@H]2CC=CC(=O)O2)O[C@@H](/C=C/C)[C@H]1C (stereo partly shown)
2. C/C=C/[C@@H]1O[C@H](C(=O)/C=C/C=C(\C)C[C@@H](C)/C=C(C)\C=C\[C@H]2CC=CC(=O)O2)C[C@@H](O)[C@@H]1C
3. C#CCCC(=O)N[C@H](/C=C/C=C(\C)C[C@@H](C)/C=C(C)\C=C\[C@H]1CC=CC(=O)O1)[C@@H]1C[C@@H](O)[C@H](C)[C@H](/C=C/C)O1
4. C/C=C/[C@@H]1O[C@H]([C@@H](/C=C/C=C(\C)C[C@@H](C)/C=C(C)\C=C\[C@H]2CC=CC(=O)O2)NC(=O)CCSSc2ccccn2)C[C@@H](O)[C@@H]1C [Compound 31, 2-PySS(CH2)2(CO)-16R-Aminoratjadone]

result:
1: 8.14; 2: 8.59; 3: 8.98; 4: 8.06

// batch mode: one pIC50 value per listed entry
1. C/C=C/[C@@H]1O[C@H]([C@H](N)/C=C/C=C(\C)C[C@@H](C)/C=C(C)\C=C\[C@H]2CC=CC(=O)O2)C[C@@H](O)[C@@H]1C [Compound 16, 16R-aminoratjadone]
2. C#CCCOC(=O)N[C@H](/C=C/C=C(\C)C[C@@H](C)/C=C(C)\C=C\[C@H]1CC=CC(=O)O1)[C@@H]1C[C@@H](O)[C@H](C)[C@H](/C=C/C)O1

result:
1. 9.41
2. 9.33

query: pIC50 for CC=CC1OC(C(C=CC=C(C)CC(C)C=C(C)C=CC2CC=CC(=O)O2)NC(=O)OCc2ccc(NC(=O)C(CCCNC(N)=O)NC(=O)C(NC(=O)OCC3C4CCC#CCCC43)C(C)C)cc2)CC(O)C1C (stereo not shown) ?
result: 7.60

---

# System: A-549
# assay.procedure: cells
# Assay type: cell-based, human
# reported.conditions: Homo sapiens, A549, read-out: Antiproliferative activity IC50, A-549 human lung carcinoma
parameter.measured: IC50

C/C=C/[C@@H]1O[C@H]([C@H](O)/C=C/C=C(\C)C[C@@H](C)/C=C(C)\C=C\[C@H]2CC=CC(=O)O2)CC(=O)[C@@H]1C	0.1 nM

Could you now consider this next compound?
query: IC50 for C/C=C/[C@@H]1O[C@H]([C@@H](/C=C/C=C(\C)C[C@@H](C)/C=C(C)\C=C\[C@H]2CC=CC(=O)O2)NC(=O)CCSSc2ccccn2)C[C@@H](O)[C@@H]1C [Compound 31, 2-PySS(CH2)2(CO)-16R-Aminoratjadone] ?
result: 30.6 nM
